Tested on: A-431
Assay: Inhibition of kynurenine production in IFNgamma-treated human A431 cells at 1 uM after 24 hrs in presence of tryptophan relative to control
Assay type: functional
Conditions: A-431, 24 h
Measurement label: inhibition at 1 µM (%)
Your answer is read as %, so omit the unit and give the number.

// known answers, use as guide
> print(dat)
                                smiles.repr   measurement.label  assay.value
1     Clc1ccc2oc(SCc3ccccc3CCc3ccccc3)nc2c1  inhibition at 1 µM          -18
2  Clc1ccc2[nH]c(SCc3ccccc3C#Cc3ccccc3)nc2c1  inhibition at 1 µM            6
3  O=S(=O)(Cc1ccccc1)c1ccccc1CSc1nc2cc(Cl)ccc2[nH]1  inhibition at 1 µM            1
4             c1ccc(CCc2ccccc2CSc2nccs2)cc1  inhibition at 1 µM            7
5            c1ccc(CCc2ccccc2CSC2=NCCN2)cc1  inhibition at 1 µM            7

Entry Clc1ccc2[nH]c(SCc3ccccc3CCc3ccccc3)nc2c1 has what inhibition at 1 µM?
48

Field request: inhibition at 1 µM | item: Clc1ccc2[nH]c(SCc3ccccc3/C=C/c3ccccc3)nc2c1
15

Query (compound): c1ccc(CCc2ccccc2CSc2nc3ccccc3[nH]2)cc1 ; field requested: inhibition at 1 µM
43

Form field: reported inhibition at 1 µM of c1ccc(CCc2ccccc2CSc2ncc[nH]2)cc1
1

Look up inhibition at 1 µM: c1ccc(CCc2ccccc2CSC2=NCCS2)cc1
0
